Data origin: patent US20190293634A1

Assay: In vitro enterotoxicity assay with cryopreserved intestinal mucosa from duodenum, jejunum and ileum, cellular ATP contents (Example 8)
Conditions: human, IC50 (cytotoxicity), Duodenum mucosa, 24 hrs, cellular ATP contents
measure: IC50 at 24 h (µg/mL)
A number alone suffices; assume µg/mL.

Returns the measured IC50 at 24 h for the input molecule. Input: `COc1ccc2cc([C@H](C)C(=O)O)ccc2c1`
350

###

Assay: in vitro
Conditions: human, IC50 (cytotoxicity)
measure: IC50 at 24 h (µg/mL)
A number alone suffices; assume µg/mL.

Returns the measured IC50 at 24 h for the input compound. Input: `CC(=O)Nc1ccc(O)cc1`
2250

###

Assay: In vitro enterotoxicity assay with cryopreserved intestinal mucosa from duodenum, jejunum and ileum, cellular ATP contents (Example 8)
Conditions: human, IC50 (cytotoxicity), Ileum mucosa, 24 hrs, cellular ATP contents
measure: IC50 at 24 h (µg/mL)
A number alone suffices; assume µg/mL.

Returns the measured IC50 at 24 h for the input compound. Input: COc1ccc2cc([C@H](C)C(=O)O)ccc2c1 [Naproxen, naproxen]
360

###

Experiment: In vitro enterotoxicity assay with cryopreserved intestinal mucosa from duodenum, jejunum and ileum, cellular ATP contents (Example 8)
Settings: human, IC50 (cytotoxicity), Jejunum mucosa, 24 hrs, cellular ATP contents
measure: IC50 at 24 h
Number first, unit second: that is the form wanted.

Returns the measured IC50 at 24 h for the input compound. Input: COc1ccc2cc([C@H](C)C(=O)O)ccc2c1 [Naproxen, naproxen]
390 µg/mL
